Target: T1, His-tagged CEACAM1 (human, UniProt P13688 35-428)
T1 construct: 45 kDa SPR analyte; also called CEACAM1-HIS; CEACAM1 analyte
T1 sequence: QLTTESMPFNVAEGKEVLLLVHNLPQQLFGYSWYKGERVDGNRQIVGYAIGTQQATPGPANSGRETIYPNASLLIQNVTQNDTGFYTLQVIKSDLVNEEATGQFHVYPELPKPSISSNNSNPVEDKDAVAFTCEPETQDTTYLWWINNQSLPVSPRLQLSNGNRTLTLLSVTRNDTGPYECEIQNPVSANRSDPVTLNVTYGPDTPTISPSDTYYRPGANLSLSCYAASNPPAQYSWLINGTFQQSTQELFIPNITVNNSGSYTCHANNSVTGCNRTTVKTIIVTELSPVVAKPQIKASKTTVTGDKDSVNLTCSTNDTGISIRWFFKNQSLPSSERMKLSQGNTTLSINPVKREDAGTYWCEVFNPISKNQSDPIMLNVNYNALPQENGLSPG
Assay: SPR multi-cycle, IgG captured
In this section we review reported koff values for a set of binders.

[
  {
    "Binder": "VH1/Vκ12 (antibody, IgG4, V domains shown, IgG4 (S241P), kappa) VH: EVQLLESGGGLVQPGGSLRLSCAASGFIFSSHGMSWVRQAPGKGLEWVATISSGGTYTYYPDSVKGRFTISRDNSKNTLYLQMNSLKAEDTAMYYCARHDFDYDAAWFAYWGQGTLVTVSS VL: EIVLTQSPATLSLSPGERATLSCRANSSVSYMYWYQQKPGQAPRPLIYLTSNRATGIPARFSGSGSGTDYTLTISSLEPEDFATYYCQQWSSNPPTFGQGTKLEIK",
    "koff [s⁻¹]": 0.0268
  },
  {
    "Binder": "VH2/Vκ12 (antibody, IgG4, V domains shown, IgG4 (S241P), kappa) VH: EVQLLESGGGLVQPGGSLRLSCAASGFIFSSHGMSWVRQAPGKGLEWVATISSGGTYTYYPDSVKGRFTISRDNSKNTLYLQMNSLRAEDTAMYYCARHDFDYDAAWFAYWGQGTLVTVSS VL: EIVLTQSPATLSLSPGERATLSCRANSSVSYMYWYQQKPGQAPRPLIYLTSNRATGIPARFSGSGSGTDYTLTISSLEPEDFATYYCQQWSSNPPTFGQGTKLEIK",
    "koff [s⁻¹]": 0.0458
  }
]
